system: Candida parapsilosis; test: Antifungal activity against Candida parapsilosis ATCC 22019 measured after 48 hrs by turbidimetric method; type: functional; details: Lodderomyces parapsilosis, ATCC 22019, 48 h
property: MIC (µM)
The response must be a number in µM with no trailing unit.

COC(=O)[C@]1(O)C(=O)[C@]2(CC=C(C)C)C[C@@H](O)C(C)(C)OC2=C1C(C)=O : 17.1

# next compound below
Input: What measured MIC goes with COC(=O)[C@@]1(O)C(=O)[C@@]2(CC=C(C)C)C[C@H](O)C(C)(C)OC2=C1C(C)=O ?
Output: 17.1
